target: Mitogen-activated protein kinase 14 (Homo sapiens, UniProt Q16539); assay: Binding affinity to p38alpha
Sequence (Q16539 whole entry): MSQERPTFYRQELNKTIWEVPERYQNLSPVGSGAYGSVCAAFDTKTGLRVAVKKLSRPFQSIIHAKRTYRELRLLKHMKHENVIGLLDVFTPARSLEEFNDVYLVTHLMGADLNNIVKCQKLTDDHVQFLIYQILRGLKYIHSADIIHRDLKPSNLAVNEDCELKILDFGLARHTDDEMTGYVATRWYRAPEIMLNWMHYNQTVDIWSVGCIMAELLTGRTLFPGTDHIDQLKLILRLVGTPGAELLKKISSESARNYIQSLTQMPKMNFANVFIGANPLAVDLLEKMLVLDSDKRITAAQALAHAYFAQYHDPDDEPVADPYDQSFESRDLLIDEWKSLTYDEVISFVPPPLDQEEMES
quantity.measured: pKd
Numbers only, as −log10 of the molar value.

What value of measured pKd is listed for CC(=O)N1CCN(c2c(-c3ccncc3)c(-c3ccc(F)cc3)c(C#N)n2C)CC1 ?
7.00

* * *

test: Bioavailability in dog; format: ADME, organism-based, Canis lupus familiaris; conditions: in vivo
quantity.measured: bioavailability (%)
Answers are plain numbers, in %.

What value of measured bioavailability is listed for CC(=O)N1CCN(c2c(-c3ccncc3)c(-c3ccc(F)cc3)c(C#N)n2C)CC1.Cl ?
70
